# Test system: AS120
# test.method.notes: qHTS profiling for inhibitors of Plasmodium falciparum proliferation (AID 504749); also: nearly all actives have a fitted effect of over 60% in size
# study.conditions: P. falciparum in erythrocytes, SYBR Green DNA, 72 h; series mostly up to 28.7 µM
Records with an inconclusive call do not appear. Calls of active or inactive are those of the source. Calls follow the shape of the dose curve; as a rule, active = well fitted inhibition curve with a large enough effect; inconclusive = small, poorly fitted or top-dose-only effect; inactive = flat fitted curve, though single readings scatter.
Outcome codes: yes (1) = active, no (0) = inactive

>  <compound>
OC[C@@H](O)C(O[C@@H]1O[C@@H](CO)[C@H](O)[C@H](O)[C@H]1O)[C@H](O)[C@@H](O)CO (some centres not stated)

>  <discrete.label>
no (0)

$$$$
>  <compound>
CC1CCC(C(C)C)C(O)C1 (configuration not stated)

>  <discrete.label>
no (0)

$$$$
>  <compound>
OCC(O)C(O)C(O)C(O)CO (configuration not stated)

>  <discrete.label>
no (0)

$$$$
>  <compound>
CN1[C@@H]2CC[C@@H]1CC(OC(=O)[C@H](CO)c1ccccc1)C2 (some centres not stated)

>  <discrete.label>
no (0)

$$$$
>  <compound>
C[C@H]1OC(OC2C(O)[C@@H](O)C(OC3C(O)[C@@H](O)C(O)O[C@@H]3CO)O[C@@H]2CO)[C@H](O)C(O)C1N[C@H]1C=C(CO)[C@@H](O)[C@H](O)C1O (some centres not stated)

>  <discrete.label>
no (0)

$$$$
>  <compound>
CCCCCOC(=O)Nc1nc(=O)n(C2O[C@H](C)[C@@H](O)[C@@H]2O)cc1F (some centres not stated)

>  <discrete.label>
no (0)

$$$$
>  <compound>
CO/N=C(/C(=O)N[C@@H]1C(=O)N2C(C(=O)O)=C(CSc3nc(C)c(CC(=O)O)s3)CS[C@H]12)c1csc(N)n1

>  <discrete.label>
no (0)

$$$$
>  <compound>
OC[C@@H]1O[C@](CO)(O[C@H]2O[C@H](CO)[C@@H](O)[C@H](O)[C@H]2O)[C@H](O)[C@H]1O

>  <discrete.label>
no (0)

$$$$
>  <compound>
C=C1CC[C@H](O)C/C1=C/C=C1\CCC[C@]2(C)[C@@H]([C@H](C)CC[C@@H](O)C(C)(C)O)CC[C@@H]12

>  <discrete.label>
yes (1)

$$$$
>  <compound>
COc1cc2c(cc1O)CCN[C@@]21CS[C@H]2c3c(OC(C)=O)c(C)c4c(c3C(COC1=O)N1C2C2c3c(cc(C)c(OC)c3O)CC([C@@H]1O)N2C)OCO4 (some centres not stated)

>  <discrete.label>
yes (1)

$$$$
>  <compound>
C=C1CC[C@H](O)C/C1=C/C=C1\CCC[C@]2(C)[C@@H]([C@H](C)CCCC(C)(C)O)CC[C@@H]12

>  <discrete.label>
yes (1)

$$$$
>  <compound>
Cc1ccc(Nc2ncccc2C(=O)O)cc1C

>  <discrete.label>
no (0)

$$$$

====

# test.method.notes: NFAT Signaling Pathway (AID 444);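 also: carbachol stimulus at about its EC50 of 1 µM final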
# study.conditions: Jurkat NFAT-bla M1, carbachol, beta-lactamase ratio, 5 h; at 17.2 µM (top of the series) unless noted
Records with an inconclusive call do not appear. The source made the active and inactive calls. Calls follow the shape of the dose curve; as a rule, active = well fitted curve in either direction with a large enough effect (not every such curve was filed as active); inconclusive = small, poorly fitted or top-dose-only effect, or another doubt; inactive = flat fitted curve, though single readings scatter.
Outcome codes: true for active, false for inactive

>  <compound>
O=C(OCCCN1CCCC1)C1(c2ccccc2)CCCC1

>  <discrete.label>
true

$$$$
>  <compound>
O=C(Nc1ccc(Cl)cn1)C1CCCN1S(=O)(=O)c1ccccc1 (stereo not drawn)

>  <discrete.label>
false

$$$$
>  <compound>
O=C(NCc1ccccc1)c1ccc(=O)[nH]n1

>  <discrete.label>
false

$$$$
>  <compound>
CCCCCOc1ccc(C(=O)NCC(=O)NCC(=O)OCC)cc1

>  <discrete.label>
false

$$$$
>  <compound>
Cc1cc2ccccc2cc(C)c1=O

>  <discrete.label>
false

$$$$
>  <compound>
Cn1c(=O)c2c(nc(NCC(O)CO)n2CCc2ccccc2)n(C)c1=O (stereo not drawn)

>  <discrete.label>
false

$$$$
>  <compound>
Nc1nc(NC(=O)c2cccs2)nn1-c1ccccc1

>  <discrete.label>
false

$$$$
>  <compound>
CCOc1cccc(-c2nnc3sc(COc4ccccc4)nn23)c1

>  <discrete.label>
false

$$$$
>  <compound>
CCN(CC)CCCN1C(=O)C(=O)/C(=C(/O)c2ccccc2)C1c1cc(OC)ccc1OC (stereo not drawn)

>  <discrete.label>
false

$$$$
>  <compound>
CCN(CC)CCNC(=O)c1ccccc1N

>  <discrete.label>
false

$$$$
>  <compound>
Cc1ccc(C(=O)C2=C(O)C(=O)N(CCN3CCOCC3)C2c2ccccn2)o1 (stereo not drawn)

>  <discrete.label>
false

$$$$
>  <compound>
COc1ccc(/C(O)=C2/C(=O)C(=O)N(Cc3ccco3)C2c2cccs2)cc1 (stereo not drawn)

>  <discrete.label>
false

$$$$
>  <compound>
CC(Sc1ccc2ccccc2n1)C(=O)O (stereo not drawn)

>  <discrete.label>
false

$$$$
>  <compound>
c1coc(-c2nnc3sc(-c4cccs4)nn23)c1

>  <discrete.label>
false

$$$$
>  <compound>
NC(=S)c1ccc[n+]([C@@H]2O[C@@H](COP(=O)([O-])OP(=O)(O)OC[C@@H]3O[C@@H](n4cnc5c(N)ncnc54)[C@@H](OP(=O)(O)O)[C@H]3O)[C@@H](O)[C@H]2O)c1

>  <discrete.label>
false

$$$$
>  <compound>
CC(C)Oc1ccc(/C(O)=C2/C(=O)C(=O)N(CCN(C)C)C2c2ccco2)cc1 (stereo not drawn)

>  <discrete.label>
false

$$$$
>  <compound>
CCC(=O)N(Cc1cccs1)C1CCOC(C)(C)C1 (stereo not drawn)

>  <discrete.label>
false

$$$$
>  <compound>
CCOc1ccc(CCNC(=O)C(O)c2ccccc2)cc1 (stereo not drawn)

>  <discrete.label>
false

$$$$
